# Tested on: NOMO1
# assayRemarks: cell viability relative to DMSO control; higher = less cytotoxic
# measurementParameters: HPLM + 10% dialyzed FBS; 48 h; 0.0211 µM
Attribute: cell viability
Note: unit % is implicit; provide only the numeric part.

compound	outputUnit	cell viability
Cc1nc(-c2ccc(OCC(C)C)c(C#N)c2)sc1C(=O)O	%	128
CN1CCc2c(c3ccccc3n2Cc2ccc(C(=O)NO)cc2)C1	%	79.8
CCn1nnc2c(N3CCOCC3)nc(-c3ccc(NC(=O)Nc4ccc(C(=O)N5CCN(C)CC5)cc4)cc3)nc21	%	67.2
CCC(CCCC)COC(=O)C(\C#N)=C(\c1ccccc1)c2ccccc2 (stereo not given)	%	117

Now for another entry.
Fill in the blank: the reported cell viability of NC1=NC(=O)N2CC12 (stereo not given) is ____.
102

---

# System: NOMO1
# assayRemarks: cell viability relative to DMSO control; higher = less cytotoxic
# measurementParameters: RPMI 5 mM glucose + 10% dialyzed FBS; 48 h; 0.00234 µM
observable: cell viability (%)
Please reply with the bare figure in % and do not write the unit itself.

Consider the following illustrative entries.
compound	outputUnit	cell viability
Nc1ccc(C(=O)Nc2cccc(-c3nc(N4CCOCC4)c4oc5ncccc5c4n3)c2)cn1	%	124
CCn1nnc2c(N3CCOCC3)nc(-c3ccc(NC(=O)Nc4ccc(C(=O)N5CCN(C)CC5)cc4)cc3)nc21	%	97.2
COc1ccccc1[C@H](c1cccc2ccccc12)[C@@](C)(C#N)C(=O)N1CCC(c2cccc(C(F)(F)F)c2)CC1	%	98.9
CCC(CCCC)COC(=O)C(\C#N)=C(\c1ccccc1)c2ccccc2 (stereo not drawn)	%	85.8
CCCOc1ccc(C(=O)OCCN(CC)CC)cc1N	%	127
O=C(O)CCCCCC(=O)NN=C1CCCC1	%	92.8
Cc1ccc(C(=O)Nc2cccc(C(F)(F)F)c2)cc1Nc1nc(-c2cccnc2)nc2c1cnn2C	%	86.2

Fill in: cell viability of `Cc1ccc2nc(NCCN)c3ncc(C)n3c2c1` is ___
95.8

---

# Test system: NOMO1
# assayRemarks: cell viability relative to DMSO control; higher = less cytotoxic
# measurementParameters: RPMI 5 mM glucose + 10% dialyzed FBS; 48 h; 0.00702 µM
Property: cell viability; scope: individual compounds
Reply with just the number (in %).

compound	testSystem	cell viability / %
CC(C)C1CCC(C(=O)N[C@H](Cc2ccccc2)C(=O)O)CC1 (some centres not stated)	NOMO1	98.9

Form field: reported cell viability of CCC(C)CCCCC(=O)N[C@@H](CCN)C(=O)NC(C(=O)N[C@H](CCN)C(=O)N[C@@H]1CCNC(=O)C([C@@H](C)O)NC(=O)[C@@H](CCN)NC(=O)[C@@H](CCN)NC(=O)[C@@H](CC(C)C)NC(=O)[C@H](Cc2ccccc2)NC(=O)[C@H](CCN)NC1=O)[C@@H](C)O (some centres not stated)
134

Need cell viability of `Oc1ccc(OCc2ccccc2)cc1` , thanks.
105

I would be grateful if you could share the reported cell viability for `C[C@]12CC[C@H]3[C@@H](CC(=C)\C4=C\C(=O)\C=C/[C@]34C)[C@@H]1CCC2=O` .
99.7

Data request, read-out cell viability, for `CC(=O)SC[C@@H](C)C(=O)N1CCC[C@H]1C(=O)N[C@@H](Cc1ccccc1)C(=O)O`
107

cell viability lookup needed for `COc1cc(NCc2ccc3nc(N)nc(N)c3c2C)cc(OC)c1OC` , thanks.
86.2

Find the recorded cell viability belonging to CN(C)CCCC1(c2ccc(F)cc2)OCc2cc(C#N)ccc21 (configuration not stated) and report it.
96.4

So what's the measured cell viability for this one? `O=C(c1cncc(Br)c1)N1CCC(N2CCCC2)CC1`
106

Param item = CCNC(=O)CCC/C=C\C[C@@H]1[C@@H](/C=C/C(O)CCc2ccccc2)[C@@H](O)C[C@@H]1O (some centres not stated) ; retrieve measured cell viability.
106

# input compound: `OC1=CC=C(C=C1)C/2=C/C3=C(OC2)C=C(O)C=C3` ; wanted: its cell viability
110

Request the reported cell viability associated with `CC[C@H]1OC(=O)[C@H](C)[C@@H](O[C@H]2C[C@@](C)(OC)[C@@H](O)[C@H](C)O2)[C@H](C)[C@@H](O[C@@H]2O[C@H](C)C[C@H](N(C)C)[C@H]2O)[C@](C)(OC)C[C@@H](C)C(=O)[C@H](C)[C@@H](O)[C@]1(C)O`
83.1

Which value of cell viability has been reported for `CN1CCc2c(c3ccccc3n2Cc2ccc(C(=O)NO)cc2)C1` in the records?
91.9
